Tested on: HL-60(TB) leukemia
PROTOCOL: NCI-60 one-dose screen, 48 h
EXPERIMENTAL_CONDITIONS: 10 µM unless noted
This is part of a sample that, as a whole, favours compounds with a hit. Of some 83,000 tested, about 20% had one in any assay. Active and inactive are the calls of the source. The calls were made as follows: active = growth percent below 10; inactive = the rest.
Would you mind answering with one of these outcomes? 1 = active, 0 = inactive

Query :: // outcome(item) with item = CCC1CCc2nc3sc(C(=O)Nc4cccc(C)c4)c(N)c3cc2C1 (stereo not given)
Result :: 0

Query :: Kindly provide the recorded test outcome for the following compound: CCCCCCCCCN(CCCCCCCCC)C(C)C(=O)c1ccc2cc(Br)c3ccccc3c2c1 (stereo not given)
Result :: 0

Query :: Any idea what this test logged for O=c1cc[nH]c(=O)o1 ?
Result :: 0

Query :: Tell me the recorded outcome of this test for Clc1ccc2c(c1)C[C@H]1C[C@@H](c3cccs3)N2O1 .
Result :: 0

Query :: How did this test come out for COc1cccc(-c2nc3sccn3c2-c2ccnc(NCCCNS(=O)(=O)c3ccc(Cl)cc3)c2)c1 ?
Result :: 0

Query :: Hi, do you know how CCn1c2ccc(O)cc2c2c(C)c3c[n+](C(C)C)ccc3c(C)c21 came out in this test?
Result :: 0

Query :: What is the recorded call for this compound in the test? O=[N+]([O-])c1ccc2ncccc2c1Cl
Result :: 0

---

Tested on: OVCAR-3 ovarian
PROTOCOL: NCI-60 one-dose screen, 48 h (100 = growth as untreated, 0 = no growth, -100 = all killed)
EXPERIMENTAL_CONDITIONS: 10 µM unless noted
About 83,000 compounds went through this panel and 20% of them were active in at least one assay; those are over-represented in the sample as a whole.
RECORDED_ENDPOINT: growth (%)
Write the number in % without appending the unit.

Query :: Given Cc1cc(NC(=O)NCCOc2ccc(N3C(N)=NC(N)=NC3(C)C)cc2Cl)ccc1S(=O)(=O)F , state its recorded growth.
Result :: 53.2

Query :: # lookup: growth of CC1(C)N=C(N)N=C(N)N1c1ccc(OCCCCNC(=O)Nc2cccc(S(=O)(=O)F)c2)c(Cl)c1
Result :: 82.3

Query :: I'd like to know its growth. The molecule in question is Nc1c(Br)cc([N+](=O)[O-])cc1[N+](=O)[O-]
Result :: 108

Query :: Bench note: what growth did O=CN1N=C(c2ccccc2)CC1c1sc(N(CCCl)CCCl)nc1Cl (centres undefined) show?
Result :: 96.1

---

Test system: HCT-15 colon
PROTOCOL: NCI-60 one-dose screen, 48 h
EXPERIMENTAL_CONDITIONS: 10 µM
About 83,000 compounds went through this panel and 20% of them were active in at least one assay; those are over-represented in the sample as a whole. Activity calls are given as the source filed them. How the source made its calls: active means growth percent below 10; inactive means the rest.
Your response should consist of one outcome taken from TRUE for active, FALSE for inactive

C1CNC2CCCC2C1 (stereo not drawn)    FALSE
O=C(CF)N(O)c1ccc(/C=C/c2ccccc2)cc1    FALSE
O=C(CC1(O)C(=O)Nc2ccc(F)cc21)c1ccc(C(=O)NCC2CCC3(CC2)OOC2(CCCCC2)OO3)cc1 (stereo not drawn)    FALSE
CCC(/C=C(C)/C=C/C(=O)c1c(O)c(-c2ccc(O)cc2)c[nH]c1=O)CO (stereo not drawn)    FALSE
CO[C@@H]1[C@H](OC(=O)NC(=O)CCl)CC[C@]2(CO2)[C@H]1[C@@]1(C)O[C@@H]1CC=C(C)C    FALSE
CNC(C)Cc1ccccc1 (stereo not drawn) (tested in a mixture with another compound)    FALSE

Query :: Which outcome was assigned to c1ccc(CCN2CCCCC2Cc2ccccc2)cc1 (stereo not drawn) in this test?
Result :: FALSE

Query :: Hi team, can someone confirm the assay call for Cc1nnc([S-])s1.[Au+].c1ccc([PH+](c2ccccc2)c2ccccc2)cc1 ?
Result :: TRUE

Query :: For COc1ccc(C2=NN(c3ccccc3)C(c3sc(N(CCCl)CCCl)nc3Cl)C2)cc1 (stereo not drawn) , which call appears in the assay record?
Result :: FALSE

Query :: Recorded call for O=C(O)CNC(=O)c1ccccc1 ?
Result :: FALSE

Query :: What classification did Clc1ccc(SSC(Cl)(Cl)Cl)cc1 end up with in this test?
Result :: FALSE

Query :: Name the outcome recorded for [Cl][Hg][n]1cnc2c(Cl)c(Cl)c(Cl)cc21 in the assay.
Result :: FALSE

Query :: Lab log entry: O=C(O)c1[nH]c(=O)[nH]c(=O)c1F — outcome as called in the assay?
Result :: FALSE

---

Test system: HS 578T breast
PROTOCOL: NCI-60 one-dose screen, 48 h
EXPERIMENTAL_CONDITIONS: 10 µM unless noted
Description: Growth inhibition of the HS 578T human tumor cell line is measured as a screen for anti-cancer activity. Cells are grown in 96 well plates and exposed to the test compound for 48 hours. Compounds are tested at a single concentration, which is 10^-5 M for most compounds. The reported endpoint is percent growth (GI% or GIPRCNT), where numbers from 0 - 100% represent growth inhibition, and numbers from -100% - 0 represent cell death. For example, a value of 40 represents 60% growth inhibition. […]
The panel holds about 83,000 compounds, 20% with a hit somewhere; the sample as a whole holds those more often. The source made the active and inactive calls. The calls were made as follows: active = growth percent below 10; inactive = the rest.
Write down one outcome, taken from class 1 = active, class 0 = inactive

// known answers, use as guide
CCC(C)/C=C(C)/C=C/C(=O)c1c(O)c(-c2ccc(O)cc2)c[nH]c1=O (stereo not given)    class 0
O=[N+]([O-])c1cccc([As]=[As]c2cccc([N+](=O)[O-])c2)c1 (stereo not given)    class 1
O=[N+]([O-])c1ccc(/C=C/C=C/c2ccc(S(=O)(=O)F)cc2)c(Cl)c1    class 0
COC(=O)C[Se]C(=O)c1ccccc1OC(C)=O    class 0
COc1cccc2c1C(=O)c1c(O)c3c(c(O)c1C2=O)CC(O)(/C(C)=N/NC(=O)CCC(=O)N/N=C(\C)C1(O)Cc2c(O)c4c(c(O)c2C(OC2CC(N)C(O)C(C)O2)C1)C(=O)c1c(OC)cccc1C4=O)CC3OC1CC(N)C(O)C(C)O1 (stereo not given)    class 1

Query :: So what was the verdict on CCC1CN1P(=O)(OCCOC)N1CC1CC (stereo not given) in this test?
Result :: class 0

---

Test system: HT29 colon
PROTOCOL: NCI-60 one-dose screen, 48 h (100 = growth as untreated, 0 = no growth, -100 = all killed)
EXPERIMENTAL_CONDITIONS: 10 µM unless noted
Description: Growth inhibition of the HT29 human tumor cell line is measured as a screen for anti-cancer activity. Cells are grown in 96 well plates and exposed to the test compound for 48 hours. Compounds are tested at a single concentration, which is 10^-5 M for most compounds. The reported endpoint is percent growth (GI% or GIPRCNT), where numbers from 0 - 100% represent growth inhibition, and numbers from -100% - 0 represent cell death. For example, a value of 40 represents 60% growth inhibition. […]
The panel holds about 83,000 compounds, 20% with a hit somewhere; the sample as a whole holds those more often.
RECORDED_ENDPOINT: growth (%)
Numbers only; they are read as %.

Cc1cc(C)nc(C)c1.[Cl][Hg][Cl]    95.7
CC12CC[C@H](O)C=C1/C(=N/O)CC1C2CCC2(C)C1CC[C@@H]2O (stereo partly drawn)    98
CNC(=O)Oc1cccc(OC)c1    103
CC1(C)CC(=O)CC(C)(C)N1N=O    99.4
COc1ccc(C2SCC(=O)Nc3c2c(C)nn3-c2nc3ccc(C)cc3s2)cc1O (stereo not drawn)    10.5
c1ccc(CCN2CCCCC2Cc2ccccc2)cc1 (stereo not drawn)    72.8
O=S(=O)(F)c1ncnc2nc[nH]c12    101
CC1CC=CCC12C(=O)NC(=S)NC2=O (stereo not drawn)    107

Query :: Find the recorded growth belonging to NC(=O)C(Cl)Cl and report it.
Result :: 116

Query :: // query growth value for entry CCC(/C=C(C)/C=C/C(=O)c1c(O)c(-c2ccc(O)cc2)c[nH]c1=O)CO (stereo not drawn)
Result :: 107

Query :: # growth lookup, item O=C(CCCN1CCC2(CC1)C(=O)NCN2c1ccc(F)cc1)c1ccc(F)cc1
Result :: 111

Query :: Entry O=CN1N=C(c2ccc3c(c2)OCO3)CC1c1sc(N(CCCl)CCCl)nc1Cl (stereo not drawn) : reported growth = ?
Result :: 97.9

Query :: Which growth value belongs to CC(=O)O[C@H]1CC[C@H]2[C@@H]3CC[C@H]4CC=C(C)C[C@]4(C)[C@H]3CC[C@]12C ?
Result :: 98.4

Query :: Can you share its growth? I mean this molecule: CN1C(=O)NC(=O)C(N=Nc2ccc(Cl)cc2)C1=O (stereo not drawn)
Result :: 99.1

Query :: I'd like to know its growth. The molecule in question is Cc1ccc2oc(=O)c3c(c2c1)OC(N)=C(C#N)C3c1ccco1 (stereo not drawn)
Result :: 108

Query :: Look up growth for this molecule: CC(CC(C#N)(c1ccccc1)c1ccccc1)N1CCOCC1 (stereo not drawn)
Result :: 106

Query :: Look up growth: O=C(CF)N(O)c1ccc(/C=C/c2ccccc2)cc1
Result :: 57.6

Query :: Need growth of O=CN1N=C(c2ccccc2)CC1c1sc(N(CCCl)CCCl)nc1Cl (stereo not drawn) , thanks.
Result :: 92.2
